Activity values for the molecules below.
Test system: Mus musculus
Assay: Anticonvulsant activity in NMRI mouse assessed as pentylenetetrazole-induced clonic seizure threshold at 5 mg/kg, ip administered 60 mins before pentylenetetrazole challenge
Type: functional
Details: route intraperitoneal
experimental_endpoint: Activity (%)

| sample_smiles | test_value |
| --- | --- |
| S=c1[nH]nc(Cc2ccc(Cl)cc2Oc2ccccc2Cl)[nH]1 | 124.08 |
| Clc1ccc(Cc2nnc(SCc3ccccc3)[nH]2)c(Oc2ccccc2Cl)c1 | 112.52 |
| CSc1nnc(Cc2ccccc2Oc2ccccc2)[nH]1 | 120.26 |
| CCCSc1nnc(Cc2ccccc2Oc2ccccc2)[nH]1 | 127.77 |
| c1ccc(CSc2nnc(Cc3ccccc3Oc3ccccc3)[nH]2)cc1 | 129.27 |
| CCSc1nnc(Cc2ccc(Cl)cc2Oc2ccccc2Cl)[nH]1 | 133.58 |
| S=c1[nH]nc(Cc2ccccc2Oc2ccccc2)[nH]1 | 126.2 |
| Nc1nnc(Cc2ccc(Cl)cc2Oc2ccccc2F)o1 | 111.61 |
| CCCSc1nnc(Cc2ccc(Cl)cc2Oc2ccccc2F)[nH]1 | 119.45 |
| CCSc1nnc(Cc2ccccc2Oc2ccccc2)[nH]1 | 132.47 |
| Fc1ccccc1Oc1cc(Cl)ccc1Cc1nnc(SCc2ccccc2)[nH]1 | 165.66 |
| CCOc1nnc(Cc2ccc(Cl)cc2Oc2ccccc2F)[nH]1 | 110.82 |
| Nc1nnc(Cc2ccc(Cl)cc2Oc2ccccc2Cl)o1 | 125.22 |
| CCOc1nnc(Cc2ccccc2Oc2ccccc2)[nH]1 | 122.56 |
| CCSc1nnc(Cc2ccc(Cl)cc2Oc2ccccc2F)[nH]1 | 125.52 |
| CCOc1nnc(Cc2ccc(Cl)cc2Oc2ccccc2Cl)[nH]1 | 120.06 |
| Nc1nnc(Cc2ccccc2Oc2ccccc2)o1 | 131.63 |
| CSc1nnc(Cc2ccc(Cl)cc2Oc2ccccc2Cl)[nH]1 | 125.02 |
| CCCSc1nnc(Cc2ccc(Cl)cc2Oc2ccccc2Cl)[nH]1 | 117.68 |
| CSc1nnc(Cc2ccc(Cl)cc2Oc2ccccc2F)[nH]1 | 110.43 |

###

pKd values for the molecules below.
Test: Displacement of [3H]flumazenil from GABAA/BZD receptor in Sprague-Dawley rat cortical membrane after 35 mins by competition binding assay
pKd: −log10 of the molar value.

| sample_smiles | pKd |
| --- | --- |
| CCSc1nnc(Cc2ccc(Cl)cc2Oc2ccccc2Cl)[nH]1 | 9.00 |
| CCCSc1nnc(Cc2ccccc2Oc2ccccc2)[nH]1 | 9.12 |
| CCSc1nnc(Cc2ccc(Cl)cc2Oc2ccccc2F)[nH]1 | 9.10 |
| CSc1nnc(Cc2ccc(Cl)cc2Oc2ccccc2F)[nH]1 | 8.63 |
| CCOc1nnc(Cc2ccc(Cl)cc2Oc2ccccc2Cl)[nH]1 | 8.89 |
| Nc1nnc(Cc2ccc(Cl)cc2Oc2ccccc2Cl)o1 | 8.96 |
| CCOc1nnc(Cc2ccccc2Oc2ccccc2)[nH]1 | 8.67 |
| CCCSc1nnc(Cc2ccc(Cl)cc2Oc2ccccc2F)[nH]1 | 8.92 |
| Nc1nnc(Cc2ccc(Cl)cc2Oc2ccccc2F)o1 | 8.94 |
| CCOc1nnc(Cc2ccc(Cl)cc2Oc2ccccc2F)[nH]1 | 8.90 |

###

System: Mus musculus
Assay: Anticonvulsant activity in NMRI mouse assessed as pentylenetetrazole-induced clonic seizure threshold at 10 mg/kg, ip administered 60 mins before pentylenetetrazole challenge
Type: functional
Conditions: route intraperitoneal

| sample_smiles | units_symbol | Activity |
| --- | --- | --- |
| Fc1ccccc1Oc1cc(Cl)ccc1Cc1nnc(SCc2ccccc2)[nH]1 | % | 168.6 |
| CCCSc1nnc(Cc2ccc(Cl)cc2Oc2ccccc2F)[nH]1 | % | 127.32 |
| S=c1[nH]nc(Cc2ccccc2Oc2ccccc2)[nH]1 | % | 141.88 |
| CCSc1nnc(Cc2ccc(Cl)cc2Oc2ccccc2F)[nH]1 | % | 144.44 |
| c1ccc(CSc2nnc(Cc3ccccc3Oc3ccccc3)[nH]2)cc1 | % | 139.21 |
| CSc1nnc(Cc2ccc(Cl)cc2Oc2ccccc2F)[nH]1 | % | 121.41 |
| CCCSc1nnc(Cc2ccc(Cl)cc2Oc2ccccc2Cl)[nH]1 | % | 125.29 |
| CCCSc1nnc(Cc2ccccc2Oc2ccccc2)[nH]1 | % | 139.38 |

###

Assay: Displacement of [3H]flumazenil from GABAA/BZD receptor in Sprague-Dawley rat cortical membrane after 35 mins by competition binding assay
For each record, check the reported IC50: if it is below 2 nM write satisfied, else write not satisfied.

| compound | assigned_category |
| --- | --- |
| CCCSc1nnc(Cc2ccc(Cl)cc2Oc2ccccc2Cl)[nH]1 | satisfied |
| Nc1nnc(Cc2ccc(Cl)cc2Oc2ccccc2Cl)o1 | satisfied |
| CCOc1nnc(Cc2ccccc2Oc2ccccc2)[nH]1 | not satisfied |
| CSc1nnc(Cc2ccccc2Oc2ccccc2)[nH]1 | satisfied |
| Clc1ccc(Cc2nnc(SCc3ccccc3)[nH]2)c(Oc2ccccc2Cl)c1 | not satisfied |
| Fc1ccccc1Oc1cc(Cl)ccc1Cc1n[nH]c(=S)[nH]1 | satisfied |
| Fc1ccccc1Oc1cc(Cl)ccc1Cc1nnc(SCc2ccccc2)[nH]1 | satisfied |
| CCCSc1nnc(Cc2ccccc2Oc2ccccc2)[nH]1 | satisfied |
| CCOc1nnc(Cc2ccc(Cl)cc2Oc2ccccc2Cl)[nH]1 | not satisfied |
| Nc1nnc(Cc2ccc(Cl)cc2Oc2ccccc2F)o1 | satisfied |
| CSc1nnc(Cc2ccc(Cl)cc2Oc2ccccc2F)[nH]1 | not satisfied |
| CCSc1nnc(Cc2ccc(Cl)cc2Oc2ccccc2F)[nH]1 | satisfied |
| CN1C(=O)CN=C(c2ccccc2)c2cc(Cl)ccc21 [DIAZEPAM] | not satisfied |
| S=c1[nH]nc(Cc2ccc(Cl)cc2Oc2ccccc2Cl)[nH]1 | satisfied |
| Nc1nnc(Cc2ccccc2Oc2ccccc2)o1 | satisfied |
| c1ccc(CSc2nnc(Cc3ccccc3Oc3ccccc3)[nH]2)cc1 | not satisfied |
| CSc1nnc(Cc2ccc(Cl)cc2Oc2ccccc2Cl)[nH]1 | not satisfied |
| S=c1[nH]nc(Cc2ccccc2Oc2ccccc2)[nH]1 | not satisfied |
| CCSc1nnc(Cc2ccc(Cl)cc2Oc2ccccc2Cl)[nH]1 | satisfied |
| CCOc1nnc(Cc2ccc(Cl)cc2Oc2ccccc2F)[nH]1 | not satisfied |

###

Test: Displacement of [3H]flumazenil from GABAA/BZD receptor in Sprague-Dawley rat cortical membrane after 35 mins by competition binding assay
experimental_endpoint: Kd (nM)

| molecule | units_symbol | test_value |
| --- | --- | --- |
| S=c1[nH]nc(Cc2ccccc2Oc2ccccc2)[nH]1 | nM | 1.9 |
| CSc1nnc(Cc2ccc(Cl)cc2Oc2ccccc2Cl)[nH]1 | nM | 1.54 |
| Nc1nnc(Cc2ccccc2Oc2ccccc2)o1 | nM | 1.17 |
| S=c1[nH]nc(Cc2ccc(Cl)cc2Oc2ccccc2Cl)[nH]1 | nM | 1.09 |
| CN1C(=O)CN=C(c2ccccc2)c2cc(Cl)ccc21 [DIAZEPAM] | nM | 1.75 |
| c1ccc(CSc2nnc(Cc3ccccc3Oc3ccccc3)[nH]2)cc1 | nM | 1.27 |
| Clc1ccc(Cc2nnc(SCc3ccccc3)[nH]2)c(Oc2ccccc2Cl)c1 | nM | 1.36 |
| Fc1ccccc1Oc1cc(Cl)ccc1Cc1nnc(SCc2ccccc2)[nH]1 | nM | 0.544 |
| Fc1ccccc1Oc1cc(Cl)ccc1Cc1n[nH]c(=S)[nH]1 | nM | 0.836 |
| CSc1nnc(Cc2ccccc2Oc2ccccc2)[nH]1 | nM | 0.84 |
| CCCSc1nnc(Cc2ccc(Cl)cc2Oc2ccccc2Cl)[nH]1 | nM | 0.82 |
